# Measurement target: Phosphatidylinositol 4-kinase beta (Homo sapiens) (UniProt Q9UBF8);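 note: values are mean percent inhibition of PI4K-beta activity, averaged over replicate measurements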
# Sequence (Q9UBF8 2-816 limits assumed): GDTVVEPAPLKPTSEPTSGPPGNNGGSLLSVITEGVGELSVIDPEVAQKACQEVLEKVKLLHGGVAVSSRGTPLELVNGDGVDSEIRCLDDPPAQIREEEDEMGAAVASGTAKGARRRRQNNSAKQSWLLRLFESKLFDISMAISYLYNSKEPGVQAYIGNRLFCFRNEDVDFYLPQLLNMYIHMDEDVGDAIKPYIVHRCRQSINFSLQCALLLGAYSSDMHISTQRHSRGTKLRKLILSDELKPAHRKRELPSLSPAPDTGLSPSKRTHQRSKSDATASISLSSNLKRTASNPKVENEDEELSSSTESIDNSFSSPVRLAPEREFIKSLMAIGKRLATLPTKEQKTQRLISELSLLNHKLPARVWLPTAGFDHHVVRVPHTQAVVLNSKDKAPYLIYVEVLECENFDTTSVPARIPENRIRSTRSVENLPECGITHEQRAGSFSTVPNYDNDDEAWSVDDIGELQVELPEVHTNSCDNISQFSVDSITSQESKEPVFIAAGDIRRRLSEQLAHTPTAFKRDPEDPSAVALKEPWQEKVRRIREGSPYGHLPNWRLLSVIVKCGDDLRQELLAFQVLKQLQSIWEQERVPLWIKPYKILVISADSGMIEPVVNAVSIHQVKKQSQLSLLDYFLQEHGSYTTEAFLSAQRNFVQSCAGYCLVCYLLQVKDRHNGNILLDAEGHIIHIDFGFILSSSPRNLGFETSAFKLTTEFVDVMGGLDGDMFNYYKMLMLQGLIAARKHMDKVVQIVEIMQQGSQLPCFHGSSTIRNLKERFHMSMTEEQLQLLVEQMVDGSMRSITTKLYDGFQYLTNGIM
# Recorded conditions: at 1 µM
Property label: inhibition (%)
Dear colleague, please return just the value in %, with no unit written.

For the molecule shown here, CN(C)C(=O)O[C@H]1CN[C@H](C#Cc2cc3ncnc(Nc4ccc(OCc5cccc(F)c5)c(Cl)c4)c3s2)C1 , give the reported inhibition.
-3.29

For the molecule shown here, COc1cccc(-n2nc(C)c3c(N/N=C(\C)c4ccncc4)ncnc32)c1 , give the reported inhibition.
-3.63

For the molecule shown here, c1ccc(Nc2ncc(-c3ccccc3)o2)cc1 , give the reported inhibition.
-3.06

For the molecule shown here, COc1cc2ncn(-c3cc(OCc4ccccc4S(C)(=O)=O)c(C#N)s3)c2cc1OC , give the reported inhibition.
-1.46

For the molecule shown here, Nc1nccc(C#Cc2cncnc2Nc2ccc(OCc3cccc(F)c3)c(Cl)c2)n1 , give the reported inhibition.
-0.63

For the molecule shown here, Cc1ccc2c(-c3ccnc(Nc4ccc5c(c4)OCCO5)n3)c(-c3ccc(C(F)(F)F)cc3)nn2n1 , give the reported inhibition.
-2.49
